experiment: yeast display, Sf9 membrane polyspecificity reagent, FACS + sequencing; frameworks hold sequencing errors
VALUE TYPE: polyreactivity (PSR sort gate)

Consider the following illustrative entries.
- SEQ STRING: "QVQLVESAGGLVQAGGSLRLSCAASGRISAYAMGWYRQAPGKERELVAAISSRGGRTYYADSVKGRFTISRDNAKNTVYLQMNSLKPDDTAVYYCNALRTWEFDHWGQGTQVTVSS"
  REPORTED RESULT: "high polyreactivity"
- SEQ STRING: "QVQLVESGGGLVQAGGSLRLSCAASGSIFSYDAMGWYRLAPGKERELVAVINSGGRTNYADSVKGRFTISRDNAKNTVYLQMNRLKPEDTAVYYCAAQGYFVDRAGRYDRGDYWGQGTQVTVSS"
  REPORTED RESULT: "high polyreactivity"
- SEQ STRING: "QFQLVESGGGLVQAGGSLRLSCAASGSTFDPYAMGWDTQAPGKEREFLADIDSSVGSTFYADSVKGRFTISRDNPKNTVYLQMNSLKPEDTAVYYCAAASRVAKGRWRLYDYWGQGTQVTVSS"
  REPORTED RESULT: "high polyreactivity"
- SEQ STRING: "QVQLVESGGGLVQAGASLRLSCAASGITFYSYGMGWYRQAPGKERELVAAISGSGTTTYADSVKGRFTISRDNAKNPVYLQMNSLKPEDTAVYYCAAVARYPRWHHYYWGQGTQVTVSS"
  REPORTED RESULT: "low polyreactivity"
- SEQ STRING: "QVQLVESGGGLVQAGGSLRLSSAASGSILYVYAMGWYRQAPGKERELVAVITSGGSTNYADSVKGRFTISRDNAKNTVYLQMNSLKPEDTAVYYCAADPYSVYGGDYWGQGTQVTVSS"
  REPORTED RESULT: "low polyreactivity"
- SEQ STRING: "QVQLVESGGGLVQAGGSLRLSCAASGFTFVRYAMGWYRQAPGKEREFVASISARGGNTFYADSVKGRFTISRDNAKNTVYLQMNSLKPEDTAVYYCAKRGPYGTGYGYWGQGTQVTVSS"
  REPORTED RESULT: "high polyreactivity"

Please turn your attention to the following entry.
Please look up its polyreactivity (PSR sort gate): `QVQLVESGGGLVQAGGSLRLSCAASGRIFCFNAMGWYRQAPGKERELVAAISGTGGSTYYADSEKGRFTISRDNAKNTVYLQMNSLKPEDTAVYYCAAFYNYYGQRYYYWGQGTQVTVSS`
high polyreactivity

---

experiment: yeast display, Sf9 membrane polyspecificity reagent, FACS + sequencing; frameworks hold sequencing errors
VALUE TYPE: polyreactivity (PSR sort gate)

- SEQ STRING: "QVQLVESGGGLVHAGCSLRLSCDASGRIFKNYAMGWYRQAPGKERELVAAISWSGGRTYYADSVKGRFTISRDYAKNTVYLQMHRLKPEDTEVYYCATAARRGPTSIEPFGYGSWGQGTQVTVSS"
  polyreactivity (PSR sort gate): "high polyreactivity"
- SEQ STRING: "QVQLVASGGGLLQAGGSLRLSCAASGSIVGLYAMGWYRQAPGNETELVAAISWSAGRTYYADTVKGRFTISRDNAKNTVYLQMNSLIPEETAVYYCNAPYLHYVFVFTDYSQRYDYWGQGTQVTVSS"
  polyreactivity (PSR sort gate): "high polyreactivity"
- SEQ STRING: "QVQLVESGGGLDQAGGSLRLSCAASGRIVVGYAMGWYRQAPGKERELVAAINRSGSSTYYADSVKGRFTISRDNGKITVYLQMNSLKPEDTAVYYCNARSGNRYGPRYDYWGQGTQVTVSS"
  polyreactivity (PSR sort gate): "high polyreactivity"
- SEQ STRING: "QVQLVESGGGLVQAGGSLRLSCAASGSTFTTNAMGWSRQAPGNERELVATISGGGSTYYADSVKGRFTISRDNAKNTVYLQMNSLKPEDTAVYDCATDVQVPGIGRSVYAYEYWGQGTQVTVSS"
  polyreactivity (PSR sort gate): "low polyreactivity"
- SEQ STRING: "QVQLVESGGVLVQAGGILRLSCAASVRTFYRYAMGWYRQAPGKERELVAAITSGDRTNYADSVKGRFTMSRDNAKNTVYLQMNSLKPEYTADYYCAARRDYWAPYYYWGQGTQVTVSS"
  polyreactivity (PSR sort gate): "high polyreactivity"

I would be grateful if you could share the reported polyreactivity (PSR sort gate) for `QVQLEESGGGLVQAGGSLRLSCAASGRTFYRSAMGWYRPEPGKERELVAAITWSGGSTYYAVSVKGRFTTSRDNAKNTVYLQMNSLKPEDTAVYYCARRLYPYRPTAYDYWGQGTQVTVSS` .
low polyreactivity

# lookup: polyreactivity (PSR sort gate) of `QVQLVESGGGLVQAGGSLRLSCAASGRIFDDYVMGWYRKAPGKERELVARISVRGGSTYYADSVKGRFTISRDNAKNTVYLQMNSLKPEDTAVYYCNAVFGGWLGPFDYWGQGTQVTVSS`
low polyreactivity

Item under review: `QVQLVESGGGLVQAGGSLRLSCAASGSTFKYNAMGWYRQAPGKERELVARISWSGGSTYYADSVKGRFTISRDNAKNSVYLQMNSLKPEDTAVYYCAARSWWRGYSFYYWGQGTQVTVSS` . Reported polyreactivity (PSR sort gate)?
high polyreactivity

# lookup: polyreactivity (PSR sort gate) of `QVQLVESGGGLVQAGGSLSLSCAAYGRTFYRNAMGWYRQAPGKERELVAAISYSGGSTYYADSVKGRFTISRDNAKNTVYLQMNILKPEDTAVYYCNVLYRVDYYRRVDYWGQGTQVSVSS`
high polyreactivity

Entry `QVQLVESGGGLVQAGVSLRLSCAASGRIFAVNAMGWYRQAPGKERELVASIRWSGGSTYYADSVKGRFTISRDYAKNTVYLQMNSLKPEETAVYYCAAVIYLWGQGTQVTVSS` has what polyreactivity (PSR sort gate)?
high polyreactivity

Fill blank: measured polyreactivity (PSR sort gate) of the sequence `QVQLVESGGGLVQAGGSLRLSCAASGSIFYSYAMAWYRQAPGKERELVAAITSGGSTYYADSVKGRFTISRDNAKNTVYLQMNTLKPEDTAVYYCAKRWPAYWGKGHGSWGQGTQVTVSS` is ____.
high polyreactivity

// lookup polyreactivity (PSR sort gate) for `HAQLQDSGGGLVQAGGSLRLSCAASGNISSEYYMGWGRQAPGSGREFVAAIDYGGTTNYADNVKGRFTISRDNAKNTVYLQMNSLRPEDTAVYYCAASCDTIGLFAYWGQGTQVTVIS`
high polyreactivity

---

test: yeast display, Sf9 membrane polyspecificity reagent, FACS + sequencing; frameworks hold sequencing errors
VALUE TYPE: polyreactivity (PSR sort gate)

Answered cases to consult:
- SEQ STRING: "QVQLVESGGGLVHAGGPLRLSCAASGGIFFSYAMGWYRQAPGKERELVAAIRTNGGTTYYADSVKGRFTISRDNAKNTVYLHMNSLKPEETAVYDCAALPGGYYDRGEYDYWGQGTQVTVSS"
  polyreactivity (PSR sort gate): "low polyreactivity"
- SEQ STRING: "QVQLVESGGGLVQAGGSLRLSCAASGRIFYTNVMGWYRQATGKERELVAAISTGGGRTYYADSVKGRITISRDNAKNSVYLQMNSLKPEDTAVYDCAASGRYAIVWGDQYYGYYYWGQGTQVTVSS"
  polyreactivity (PSR sort gate): "high polyreactivity"
- SEQ STRING: "QVQLVESGGGLVQAGGSLRLSCAASGIIFDWYAMGGYRQAPGKERELVAAITSGGGSTYYADSVKGRFTISRDNAKNSVYLQMNSLKPEDSAVYYCAADYQTIGWGYDYWGQGTQVTVSS"
  polyreactivity (PSR sort gate): "low polyreactivity"
- SEQ STRING: "QVQLVESGGGLVQAGGSLRLTCAASGRIFRRNAMGGYRQAPGKEREMVATITSGSSTNYADSVKGRFTISRDNAKNTVYLQMHSLKPEDTAVYYCAKLPWKYRVGYYRNQQTYDYWGQGTQVTVSS"
  polyreactivity (PSR sort gate): "high polyreactivity"
- SEQ STRING: "QVQLVESGGGLVQAGGSLRLSCAASGRNFYLYAMGWYRPAPGKERELVAAITRRGGSTYYADSVKGRFTISRDNAKNTVYLQMNSLKPEDTAVYYCAADRPGTGYSDYDYWGQGTQVTVSS"
  polyreactivity (PSR sort gate): "high polyreactivity"

Quick one: polyreactivity (PSR sort gate) for `QVQLVESGGGLVQAGGSLRLSCAASGITFKYYAMGWYRQAPGKERELVAAISRGGGSTYYADSVKGRFTISRDNAKNTVYLQMNSLKPEDTAVYYCNAVFYSFIQSDYWGQGTQVTVSS` ?
high polyreactivity

---

experiment: yeast display, Sf9 membrane polyspecificity reagent, FACS + sequencing; frameworks hold sequencing errors
VALUE TYPE: polyreactivity (PSR sort gate)

- SEQ STRING: "QVQLVESGGGIVQAGGSLRLSCAASGSTFFIYAMGWYRQAPGKERELVAAISGSGGTTYYADSVKGRFTISRDNAKNTVYLQMNSLKPEDTAVYYCAARTFSAFWRGGYDYWGQGTQVTVSS"
  VALUE TYPE: "polyreactivity (PSR sort gate)"
  REPORTED RESULT: "low polyreactivity"
- SEQ STRING: "QVQLVESGGGLVQAGGSLRLSCAASGSIFPHYAMGWYRQAPGKERELVASITYDGDSTYYADSVKGRFTISRDNAKNTVYLQMNSLKPEDTAVYYCAADYYYVYSSFGHYYWGQGTQVTVSS"
  VALUE TYPE: "polyreactivity (PSR sort gate)"
  REPORTED RESULT: "low polyreactivity"
- SEQ STRING: "QVQLVESGGGLVQAGGSLRLSCAASCRIFSYYVMGWYRQAPGKERELVAAISYRGGGTYYADSVKGRFTISRDNAKNNFYLQMNSLKPEDTAVYYCNADTYSNTYRAYDYWGQGTQVTVSS"
  VALUE TYPE: "polyreactivity (PSR sort gate)"
  REPORTED RESULT: "low polyreactivity"
